What Anti-arrhythmic effect (Refractory period extension) ED25 was measured for each of the following?
- Tested on: left auricle of the heart of guinea pigs
- PROTOCOL_DETAILS: Functional refractory period and contractility of the isolated left auricle (paired electrical stimulation, adapted from Govier)
- Type: cell-based, guinea pig
- Design: unit not given here
- EXPERIMENTAL_CONTEXT: effective dose which extends the refractory period by 25%; guinea pig left auricle, up to 30 minutes

In the examples that follow, each entry is paired with its recorded Anti-arrhythmic effect (Refractory period extension) ED25.
INSERT INTO measurements (record_smiles, endpoint_value) VALUES
  ('CCC[N+]12[C@H](O)[C@@H](CC)[C@@H]3C[C@H]1[C@@H]1N(C)c4ccccc4[C@]14C[C@H]2[C@@H]3[C@H]4O', 0.0037),
  ('c1ccc(CN2CC3CC(C2)CN(Cc2ccccc2)C3)cc1', 0.034),
  ('c1ccc(CN(CC2=NCCN2)c2ccccc2)cc1', 0.164),
  ('CC(C)N1CC2CC(CN(CCc3ccccc3)C2)C1', 0.13);

We now examine a further compound.
query: Which Anti-arrhythmic effect (Refractory period extension) ED25 is reported for this compound? CCN(CC)CC(=O)Nc1c(C)cccc1C
result: 0.47
